System: LXF-289
TEST_NAME: relative viability (nuclei count vs DMSO), 5 days (fraction); higher = more cells survive
MEASUREMENT_SETUP: first compound 0.1581 µM
Hi there, I'd appreciate the recorded relative viability for every entry that follows.
Answers are plain numbers.

Example entries begin here.
COMPOUND	TARGET_OF_ASSAY	relative viability
Nc1ccn([C@@H]2O[C@H](CO)[C@@H](O)[C@@H]2O)c(=O)n1 [Cytarabine] + O=C(c1cc(Cc2n[nH]c(=O)c3ccccc23)ccc1F)N1CCN(C(=O)C2CC2)CC1 [Olaparib] (partner 8 µM)	LXF-289	0.285
Nc1ccn([C@@H]2O[C@H](CO)[C@@H](O)[C@@H]2O)c(=O)n1 [Cytarabine] + Cc1nc(NC(=O)N2CCC[C@H]2C(N)=O)sc1-c1ccnc(C(C)(C)C(F)(F)F)c1 [Alpelisib] (partner 2 µM)	LXF-289	0.356

Here is another compound to look at.
INPUT: What does the record list as relative viability for COc1cc2nccc(Oc3ccc(NC(=O)Nc4cc(C)on4)c(Cl)c3)c2cc1OC [Tivozanib] + CC(C)C[C@H](NC(=O)[C@H](Cc1ccccc1)NC(=O)c1cnccn1)B(O)O [Bortezomib] (partner 0.002 µM) ?
OUTPUT: 1.03

Every entry's value here was drawn from the supplement of paper PMC10307832.
